System: SK-MEL-28 melanoma
Assay: NCI tumour cell line growth inhibition, 48 h
Listing: TGI of selected compounds

>  <Compound>
CC1CC(OP(=O)(OCc2ccccc2)OCc2ccccc2)[C@@H](OCc2ccccc2)C(OCc2ccccc2)C1OCc1ccccc1 (stereo not given in full)

>  <TGI>
> 100 µM

$$$$
>  <Compound>
CN1CCN(C2CCN(C(=O)Nc3cc(Oc4ccc(NC(=O)C5(C(=O)Nc6ccc(F)cc6)CC5)c(F)c4)ccn3)CC2)CC1

>  <TGI>
2.28 µM

$$$$
>  <Compound>
CCCNC(=O)NNC(=O)c1c[nH]c2nc(C)ccc2c1=O

>  <TGI>
> 100 µM

$$$$
>  <Compound>
COc1cc2c(cc1OC)C(CC1=C(c3ccccc3)CN3CCc4cc(OC)c(OC)cc4C3C1)NCC2 (stereo not given)

>  <TGI>
28.5 µM

$$$$
>  <Compound>
CN1C(=O)c2ccccc2OC12C=Cc1c(ccc3ccccc13)O2 (stereo not given)

>  <TGI>
> 67.6 µM

$$$$
>  <Compound>
COc1cccc(CC(C)=C(c2ccc(OCCN(C)C)cc2)c2ccc(OCCN(C)C)cc2)c1

>  <TGI>
1.1 µM

$$$$
>  <Compound>
Cc1ccc(/C=N/Nc2cc(C)c3cccc(C)c3n2)s1

>  <TGI>
> 100 µM

$$$$
>  <Compound>
CC(=O)OC1/C=C(\C)C(OC(C)=O)C/C=C(/C)CCC2C(/C=C/C1=O)C2(C)C (stereo not given)

>  <TGI>
> 100 µM

$$$$
>  <Compound>
CCOC(=O)NC(Nc1ccc(C)cc1)(C(F)(F)F)C(F)(F)F

>  <TGI>
> 100 µM

$$$$
>  <Compound>
Cc1[nH]c(=O)nc2nc3ccc(Cl)cc3c(NCCNCCO)c12

>  <TGI>
31.8 µM

$$$$
